Answer each item with its documented abundance fitness.
B1: Homeobox protein cut-like 1, residues 548 to 629; numbered along this chain, P39880 (parent)
chain: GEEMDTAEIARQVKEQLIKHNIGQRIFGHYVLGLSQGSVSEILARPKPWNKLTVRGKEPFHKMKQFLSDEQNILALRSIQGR

- Variants of: B1
- method.description: abundance fitness (aPCA) (normalised: wild type 0, dead -1); higher = more abundant; growth selection in yeast, the domain comes from the species named
- measurement.setup: Homo sapiens
Give bare numbers.

Some entries whose results are on file:
What value of measured abundance fitness is listed for GEEMDTAEIARQVKEQLIKTNIGQRIFGHYVLGLSQGSVSEILARPKPWNKLTVRGKEPFHKMKQFLSDEQNILALRSIQGR [H20T] ?
-0.608

Requested field: abundance fitness. Item: GEEMDTAEIARQVKEQLIKHNIGQRIFGHYVLGLSQGSVSEILARPKPWNKLNVRGKEPFHKMKQFLSDEQNILALRSIQGR [T53N]
-0.077

Which measured abundance fitness value corresponds to GEEMDTAEIARQVKEQLIKHNIGQRIFGHYVLGLSQYSVSEILARPKPWNKLTVRGKEPFHKMKQFLSDEQNILALRSIQGR [G37Y] ?
-0.034

Fill in: abundance fitness of GEEMDTAEIARQVKEQLIKHNIGQRIFGHYVLGLSQGKVSEILARPKPWNKLTVRGKEPFHKMKQFLSDEQNILALRSIQGR [S38K] is ___
0.061

Fill in the blank: the reported abundance fitness of GEEMDTAEIARQVKEQLIKHNIGQRIFGHYVLGLSQGSVSEILARPKPWNKLTVRTKEPFHKMKQFLSDEQNILALRSIQGR [G56T] is ____.
-0.333

abundance fitness for GEEMDTAEIARQVKEQLIKHNIGQRIFGHYVLGLSQGSVSEILARPKPWNKLTVRGKEPFHKMKQFLSDEQNILALRWIQGR [S78W] ?
-0.201

I have this variant here, GEEMDTAEIARQVKEQLIKHNIGQRIFGHYVLGLSQGSDSEILARPKPWNKLTVRGKEPFHKMKQFLSDEQNILALRSIQGR [V39D] , and I need its recorded abundance fitness.
-0.732

Would you kindly share the measured abundance fitness for GEEMDTAEIARQVKEQLIKHNIGQRIFGHYVLSLSQGSVSEILARPKPWNKLTVRGKEPFHKMKQFLSDEQNILALRSIQGR [G33S] ?
-0.297

Could you share which abundance fitness value was measured for GEEMDTAEIARQVKEQLIKHNIGQRIFGHYVLGLSQGSVSEILARPKPWNKLTVRGKEPFHKMKQFLSDEQNMLALRSIQGR [I73M] ?
-0.064

Quick check: abundance fitness of GEEMDTAEIARQVKEQLIKHNIGQRIFGHYVLGRSQGSVSEILARPKPWNKLTVRGKEPFHKMKQFLSDEQNILALRSIQGR [L34R] ?
-0.393

Dear colleague, could you send me abundance fitness for each of the items below? Thanks.
1. GPEMDTAEIARQVKEQLIKHNIGQRIFGHYVLGLSQGSVSEILARPKPWNKLTVRGKEPFHKMKQFLSDEQNILALRSIQGR [E2P]
2. GEEMDTAEITRQVKEQLIKHNIGQRIFGHYVLGLSQGSVSEILARPKPWNKLTVRGKEPFHKMKQFLSDEQNILALRSIQGR [A10T]
3. GEEMDTAEIARQVKEQLIKHNIGQRIFGHYVLGLSQGMVSEILARPKPWNKLTVRGKEPFHKMKQFLSDEQNILALRSIQGR [S38M]
4. GEEMDTAESARQVKEQLIKHNIGQRIFGHYVLGLSQGSVSEILARPKPWNKLTVRGKEPFHKMKQFLSDEQNILALRSIQGR [I9S]
5. GEEMDTAEIARQVKEQLIKHNIGQRIFGHYVLGLSQGSVSEILARPKPWNKLTVRGKEPFHKMKQFLSDEQNILALRSIQLR [G81L]
6. GEEMDTAFIARQVKEQLIKHNIGQRIFGHYVLGLSQGSVSEILARPKPWNKLTVRGKEPFHKMKQFLSDEQNILALRSIQGR [E8F]

1: -0.478; 2: -0.08; 3: 0.11; 4: -0.672; 5: -0.097; 6: -0.22

For each of the variants below, state abundance fitness.
1. GEEMDTAEIARQVKEQLIKHNIGQRIFGHYVLGSSQGSVSEILARPKPWNKLTVRGKEPFHKMKQFLSDEQNILALRSIQGR [L34S]
2. GEEMDTAEIARQVKEQLIKHNIGQRIFGHYVLGCSQGSVSEILARPKPWNKLTVRGKEPFHKMKQFLSDEQNILALRSIQGR [L34C]
3. GEEMDTAEIARQVKEQLIKHNIGQRIFGHYVLGLSQGSVSEILARPKPWNKLTVRGKEPFHKMKQFLSDEQNILALRSIQGP [R82P]
4. GEEMDTAEDARQVKEQLIKHNIGQRIFGHYVLGLSQGSVSEILARPKPWNKLTVRGKEPFHKMKQFLSDEQNILALRSIQGR [I9D]
5. GEEMDTAEIGRQVKEQLIKHNIGQRIFGHYVLGLSQGSVSEILARPKPWNKLTVRGKEPFHKMKQFLSDEQNILALRSIQGR [A10G]
6. GEEMDTAEIARQVKEQLIKHNIGQRIFGHYVLELSQGSVSEILARPKPWNKLTVRGKEPFHKMKQFLSDEQNILALRSIQGR [G33E]

1: -0.349; 2: -0.047; 3: 0.065; 4: -0.428; 5: -0.552; 6: -0.312

For each of the variants below, note its abundance fitness.
1. GEEMDYAEIARQVKEQLIKHNIGQRIFGHYVLGLSQGSVSEILARPKPWNKLTVRGKEPFHKMKQFLSDEQNILALRSIQGR [T6Y]
2. GEEMDTAEIARQVKEQLIKHNIGQRIFGHYVLGLSQGSVSEILARPKPWNKLTVPGKEPFHKMKQFLSDEQNILALRSIQGR [R55P]
3. GEEMDTAEIARQVKEQLIKHNIGQRIFGHYVLGLSQGSVSEILARPKPWNKLTVWGKEPFHKMKQFLSDEQNILALRSIQGR [R55W]
4. GEEMDTAEIARQVKEQLIKHNIGIRIFGHYVLGLSQGSVSEILARPKPWNKLTVRGKEPFHKMKQFLSDEQNILALRSIQGR [Q24I]
5. GEEMDTAEIARQVKEQLIKHNIGQRIFGHYVLGLSQGSVSEILARPKPWNKLTVRGKEPFHKMKQFLSDNQNILALRSIQGR [E70N]
6. GEEMDTAEIARQVKEQLIKHNIGQRIFGHYVLGLSQGSVDEILARPKPWNKLTVRGKEPFHKMKQFLSDEQNILALRSIQGR [S40D]
7. GEEMDTAEIARQVKEQLIKNNIGQRIFGHYVLGLSQGSVSEILARPKPWNKLTVRGKEPFHKMKQFLSDEQNILALRSIQGR [H20N]

1: -0.901; 2: -0.159; 3: -0.095; 4: -0.032; 5: -0.084; 6: 0.078; 7: -0.178

Please give abundance fitness for each item listed below.
1. GEEMDTAEIARQVKEQLIKHNIGQRIFGHYVLGLSQGSVSEILAGPKPWNKLTVRGKEPFHKMKQFLSDEQNILALRSIQGR [R45G]
2. GEEMDTAEIARQVKEQLIKHNIGQRIFGHYVLGLSQGSVSEILARYKPWNKLTVRGKEPFHKMKQFLSDEQNILALRSIQGR [P46Y]

-0.296
-0.594

Can you give me abundance fitness for all of these, one by one?
1. GEEFDTAEIARQVKEQLIKHNIGQRIFGHYVLGLSQGSVSEILARPKPWNKLTVRGKEPFHKMKQFLSDEQNILALRSIQGR [M4F]
2. GEEMDTAEIARQVKEQLIKHNIGQRIFGHYVLGLSQGSVSEILARPKPWNKLTIRGKEPFHKMKQFLSDEQNILALRSIQGR [V54I]
3. GEEMDTAEIARQVKEQLIKHNIGQRIFGHYVLGLSQGSVSEILARPKPWNKLTVRGKEPFHKMKQFLSDEQNPLALRSIQGR [I73P]
4. GEEMDTAEIARQVKEQLIKHNIGQRIFGHYVLGLSQGSVSEILARPKPWNKLTVRGKEPIHKMKQFLSDEQNILALRSIQGR [F60I]

-0.244
-0.001
-0.303
-0.306

Give abundance fitness for each of the items listed below.
1. GEEMDTAEIARQVKEQLIKHNIGQRIFGSYVLGLSQGSVSEILARPKPWNKLTVRGKEPFHKMKQFLSDEQNILALRSIQGR [H29S]
2. GEEMDTAEIARQVKEQLIKHNIGQRIFGHYVLGLSQGSVSEILARPKPWNKLTFRGKEPFHKMKQFLSDEQNILALRSIQGR [V54F]
3. GEEMDTAEIARQVKEQLIKHNIGQRIFGHYVLGLSQGSVSEILARPKPWNKLTVRGKEPFHKMKQFGSDEQNILALRSIQGR [L67G]
4. GEEMDTAEIARQVKEQLIKHNIGQRIFGHYDLGLSQGSVSEILARPKPWNKLTVRGKEPFHKMKQFLSDEQNILALRSIQGR [V31D]
5. GEEMDTAEIARQVKEQLIKHNIGQRIFGHYVLGLSQGSVSEILARPKPWNKLTVRGKEPFHKMKQFLSDEQNILELRSIQGR [A75E]
6. GEEMDTALIARQVKEQLIKHNIGQRIFGHYVLGLSQGSVSEILARPKPWNKLTVRGKEPFHKMKQFLSDEQNILALRSIQGR [E8L]
7. GEEMDTAEIARQVKEQLIKHNIGQRIFGHYVLGLSQGSVSEILARPKPWNKLTVRFKEPFHKMKQFLSDEQNILALRSIQGR [G56F]

1: -0.081; 2: -0.094; 3: -0.848; 4: -0.839; 5: 0.092; 6: -0.091; 7: -0.224

Please give abundance fitness, item by item, for the list that follows.
1. GEEMDTAEIACQVKEQLIKHNIGQRIFGHYVLGLSQGSVSEILARPKPWNKLTVRGKEPFHKMKQFLSDEQNILALRSIQGR [R11C]
2. GEEMDTAEIARQVKEQLIKHNIGQRIFGHYVLGLSQGSVSEILARPKPWNKLTKRGKEPFHKMKQFLSDEQNILALRSIQGR [V54K]

1. -0.327
2. 0.058

List the reported abundance fitness of each variant below.
1. GEEMGTAEIARQVKEQLIKHNIGQRIFGHYVLGLSQGSVSEILARPKPWNKLTVRGKEPFHKMKQFLSDEQNILALRSIQGR [D5G]
2. GEEMDTAEIARQVKEQLIKHNIGQRIFGHYVLGLSQGSVSEILRRPKPWNKLTVRGKEPFHKMKQFLSDEQNILALRSIQGR [A44R]

[-0.395, -0.106]
